# Test system: Plasmodium berghei
# test.name: Luciferase/luciferin-expressing antifolate-resistant parasites were used to infect a culture of HepG2 cells that were pre-incubated with compounds. Infected hepatocytes emit light due to the luciferase reaction. Assay results are presented as the percent inhibition of light emission compared to control. […]
# Format: functional
# stated.conditions: sporozoite, read-out: LUCIFERASE INFECTION ASSAY - IC90
recorded.endpoint: IC90

INSERT INTO measurements (compound, result) VALUES
  ('CC(=O)N1CCN(S(=O)(=O)c2ccc(C(=O)NCCCCCCC(C)C)cc2)CC1', '> 10 µM'),
  ('CCCc1ccc(C(NC(=O)Cn2ccc(=O)[nH]c2=O)c2cccs2)cc1 (stereo not drawn)', '> 10 µM'),
  ('Cc1c(-c2cccc(Cl)c2)nc2ccccc2c1C(=O)OCC(=O)C(C#N)=C1Nc2ccccc2N1', '> 10 µM');

* * *

IC50 values for the compounds below.
# Tested on: Plasmodium berghei
# test.name: Luciferase/luciferin-expressing antifolate-resistant parasites were used to infect a culture of HepG2 cells that were pre-incubated with compounds. Infected hepatocytes emit light due to the luciferase reaction. Assay results are presented as the percent inhibition of light emission compared to control. […]
# Assay type: functional
# stated.conditions: sporozoite, read-out: LUCIFERASE INFECTION ASSAY - IC50
recorded.endpoint: IC50

INSERT INTO results (compound, result) VALUES
  ('CN(C)CCNC(=O)c1ccc(-c2cc(-c3cc4ccccc4s3)cnc2N)cc1', '> 7.92 µM'),
  ('CCc1ccc(S(=O)(=O)Oc2ccccc2NC(C)=O)cc1', '> 10 µM'),
  ('COC(=O)c1ccccc1NC(=O)/C=C/c1ccc(N2CCCS2(=O)=O)cc1', '2.97 µM'),
  ('CC(Oc1ccccc1[N+](=O)[O-])C(=O)N(c1nccs1)C1CCCCC1 (centres undefined)', '> 10 µM'),
  ('CCOc1nc(N)c(C#N)c(-c2ccc(C(F)(F)F)cc2)c1C#N', '4.53 µM'),
  ('Cc1noc(C)c1CSc1ncccc1C(=O)N(C)c1ccc2ccccc2c1', '> 10 µM'),
  ('COC(=O)c1cc(OC)c(OC)cc1NC(=O)c1ccccc1Br', '> 8.37 µM'),
  ('COC(=O)C1=C(C)NC(C)=C(C(=O)OC)C1c1cc(NC(=O)NC2CCCCC2)ccc1OC(F)F', '> 10 µM'),
  ('O=C(Nc1cccc(Cl)c1)c1csc(C(O)C2CCCCC2)n1 (centres undefined)', '> 10 µM'),
  ('O=C(c1csc2c1CCCC2)N1CCc2c(c(C(=O)N3CCCC3)nn2Cc2ccncc2)C1', '> 6.94 µM'),
  ('C=CCn1cnnc1SCC(=O)c1cccn1C', '> 10 µM'),
  ('CC(=O)Nc1nc(C(=O)Nc2nc3ccccc3n2C2CCCCC2)cs1', '> 10 µM'),
  ('O=C(Nc1cccc(C(F)(F)F)c1)Nc1ccc2nc(-c3ccncc3)nn2c1', '> 10 µM'),
  ('CCCNC(=O)C1(C)CCCN(C(=O)c2cccc(OC(C)=O)c2C)C1 (centres undefined)', '> 9.16 µM');

* * *

IC90 values for the compounds below.
# Test system: Plasmodium berghei
# test.name: Luciferase/luciferin-expressing antifolate-resistant parasites were used to infect a culture of HepG2 cells that were pre-incubated with compounds. Infected hepatocytes emit light due to the luciferase reaction. Assay results are presented as the percent inhibition of light emission compared to control. […]
# Format: functional
# stated.conditions: sporozoite, read-out: LUCIFERASE INFECTION ASSAY - IC90
recorded.endpoint: IC90 (µM)

INSERT INTO measurements (smiles, censor_symbol, readout_number) VALUES
  ('COc1ccc(CN=C2NN=C(c3cc4ccccc4o3)CS2)cc1', '=', 0.318),
  ('COc1cc2[nH]c(C(=O)Nc3cccc(C(F)(F)F)c3)cc2c(OC)c1OC', '=', 8.28),
  ('Cc1ccc(C)c(-n2c(SCCOc3ccccc3C)nnc2-c2ccccc2Cl)c1', '>', 10),
  ('O=C(COC(=O)CCC1CCCC1)Nc1ncc(C(F)(F)F)cc1Cl', '>', 10),
  ('CCOc1ccc(NC(=S)N/N=C2/C(=O)Nc3c(Cl)cc(Cl)cc32)cc1', '=', 1.16),
  ('COc1ccccc1-c1nc(-c2ccc(CCCNC(C)=O)cc2)cs1', '>', 10),
  ('N=C(N)NN=C1CCCCCCCCCCC1', '>', 12),
  ('Cc1cccn2c(=O)c(/C=N/O)c(Nc3ccc(SC(F)F)cc3)nc12', '>', 10),
  ('COc1cc(Nc2nccn3c(-c4ccc(OC(F)(F)F)cc4)cnc23)cc(OC)c1OC', '=', 4.53),
  ('O=C(Nc1nc(-c2ccc3c(c2)CCCC3)cs1)c1cnccn1', '>', 10);
